# maps each entry to its melting point
Where a name gives a salt, the structure may show the parent alone.
Measure Name: melting point

Compound | Result
Cc1ccc(-c2csc(NCc3cnc(Nc4ccccn4)s3)n2)cc1 (as salt: hydrochloride) [Compound 2z, trihydrochloride] | 169 to 170 °C
c1ccc(CNc2ncc(CNc3nc(-c4cccs4)cs3)s2)cc1 (as salt: hydrochloride) [Compound 2al, dihydrochloride] | 97 to 99 °C
CNc1ncc(CNc2nc(-c3ccc(C)cc3)cs2)s1 (as salt: hydrochloride) [Compound 2n, dihydrochloride] | 114 to 116 °C
c1ccc(CNc2ncc(CNc3ncc(Cc4ccccc4)s3)s2)cc1 (as salt: hydrochloride) [Compound 2ag, dihydrochloride] | 96 to 97 °C
Cc1ccc(-c2cnc(NCc3cnc(NCc4ccccc4)s3)s2)cc1 (as salt: hydrochloride) [Compound 2h, dihydrochloride] | 105 to 106 °C
CCCNc1ncc(CNc2ncc(CNc3nc(-c4ccc(C)cc4)cs3)s2)s1 (as salt: hydrochloride) [Compound 2ad, trihydrochloride] | > 135 °C (dec.)
Cc1ccc(-c2csc(NCc3cnc(NCc4ccccc4)s3)n2)cc1 (as salt: hydrochloride) [Compound 2j, dihydrochloride] | 106 to 108 °C
Clc1ccc(-c2csc(NCc3cnc(NCc4ccccc4)s3)n2)cc1 [Compound 2ak] | 105 to 106 °C
Fc1ccc(-c2cc(NCc3cnc(NCc4ccccc4)s3)n[nH]2)cc1 (as salt: hydrochloride) [Compound 2k, dihydrochloride] | 78 to 80 °C
CCCCNc1cccc(CNc2cc(-c3ccc(F)cc3)[nH]n2)n1 [Compound 2am] | 93 to 94 °C
c1ccc(CNc2ncc(CNc3nc(Cc4ccccc4)cs3)s2)cc1 (as salt: hydrochloride) [Compound 2ae, dihydrochloride] | 78 to 79 °C
CNc1ncc(CNc2nc(-c3ccc(Cl)cc3)cs2)s1 (as salt: hydrochloride) [Compound 2aa, dihydrochloride] | 122 to 123 °C
CNc1ncc(CNc2ncc(Cc3ccccc3)s2)s1 (as salt: hydrochloride) [Compound 2ah, dihydrochloride] | 76 to 77 °C
CNc1ncc(CNc2nc(Cc3ccccc3)cs2)s1 (as salt: hydrochloride) [Compound 2af, dihydrochloride] | 126 to 127 °C
Nc1cccc(NCc2ccc(NCc3ccccc3)nc2)n1 (as salt: hydrochloride) [Compound 2y] | 261 to 262 °C

----------
Biological target: amyloid beta (Aβ) 1-42 peptide (Homo sapiens, UniProt P05067)
Construct: amyloid beta (Aβ) 1-42 peptide; purchased Bachem
Sequence (P05067 672-713 limits assumed): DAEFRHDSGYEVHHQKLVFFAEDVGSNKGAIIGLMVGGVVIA
Test: Thioflavin T spectrofluorescence assay, inhibition of Aβ1-42 aggregation
Type: biochemical
Conditions: 330 μM small molecule, 33 μM Aβ1-42 (10:1 molar ratio), 24 hrs at 37° C.; mean ± SD of two independent experiments; read-out: % inhibition
Measure Name: inhibition at 330 µM (%)

Item Smiles | Numeric Readout
Nc1cccc(NCc2ccc(NCc3ccccc3)nc2)n1 | 57
c1ccc(CNc2cccc(CNc3cc(-c4cccs4)[nH]n3)n2)cc1 | 78.5
Fc1ccc(-c2cc(CNc3cccc(NCc4ccccc4)n3)n[nH]2)cc1 | 55.1
Fc1ccc(-c2cc(NCc3cccc(NCc4ccccc4)n3)n[nH]2)cc1 | 86.8
Fc1ccc(NCc2ccc(NCc3ccccc3)nc2)nc1 | 45

----------
# inhibition at 330 µM listing for each entry below
Target: amyloid beta (Aβ) 1-42 peptide (Homo sapiens)
Construct: amyloid beta (Aβ) 1-42 peptide; purchased Bachem
Experiment: Thioflavin T spectrofluorescence assay, inhibition of Aβ1-42 aggregation
Format: biochemical
Settings: 24 h
Method: A number of the small molecules were tested for their capacity to inhibit the aggregation of amyloid beta (Aβ) 1-42 peptide using a thioflavin T spectrofluorescence assay. Aβ1-42 lyophilized powder (Bachem) was reconstituted in hexafluoroisopropanol (HFIP) to 1 mM. […] The small molecules were evaluated for their capacity to mediate inhibition of Aβ1-42 aggregation at a 10:1 small molecule to Aβ1-42 molar ratio. The results are expressed as mean±standard deviation of two independent experiments.
Counter-ions that a name gives are not always drawn.
Measure Name: inhibition at 330 µM (%)

Compound | Assay System | Measure Name | Numeric Readout
c1ccc(Nc2ncc(CNc3nccs3)s2)nc1 [Compound 2p, trihydrochloride] | amyloid beta (Aβ) 1-42 peptide (Homo sapiens) | inhibition at 330 µM | 43.6
Fc1ccc(-c2cc(NCc3cnc(NCc4ccccc4)s3)n[nH]2)cc1 [Compound 2k, dihydrochloride] | amyloid beta (Aβ) 1-42 peptide (Homo sapiens) | inhibition at 330 µM | 81.2
c1ccc(CNc2ncc(CNc3ncc(Cc4ccccc4)s3)s2)cc1 [Compound 2ag, dihydrochloride] | amyloid beta (Aβ) 1-42 peptide (Homo sapiens) | inhibition at 330 µM | 34.2
Cc1ccc(-c2csc(NCc3cnc(Nc4ccccn4)s3)n2)cc1 [Compound 2z, trihydrochloride] | amyloid beta (Aβ) 1-42 peptide (Homo sapiens) | inhibition at 330 µM | 58.7
CCCNc1ncc(CNc2ncc(CNc3nc(-c4ccc(C)cc4)cs3)s2)s1 [Compound 2ad, trihydrochloride] | amyloid beta (Aβ) 1-42 peptide (Homo sapiens) | inhibition at 330 µM | 82.1
Cc1ccc(-c2cnc(NCc3cnc(NCc4ccccc4)s3)s2)cc1 [Compound 2h, dihydrochloride] | amyloid beta (Aβ) 1-42 peptide (Homo sapiens) | inhibition at 330 µM | 31.9
CNc1ncc(CNc2ncc(Cc3ccccc3)s2)s1 [Compound 2ah, dihydrochloride] | amyloid beta (Aβ) 1-42 peptide (Homo sapiens) | inhibition at 330 µM | 35.7
Cc1ccc(-c2cc(CNc3cc(-c4ccc(C)cc4)[nH]n3)n[nH]2)cc1 [Compound 2a, dihydrochloride] | amyloid beta (Aβ) 1-42 peptide (Homo sapiens) | inhibition at 330 µM | 65.3

----------
// reported inhibition at 330 µM for each item listed
Target: amyloid beta (Aβ) 1-42 peptide (Homo sapiens)
Construct: amyloid beta (Aβ) 1-42 peptide; purchased Bachem
Assay: Thioflavin T spectrofluorescence assay, inhibition of Aβ1-42 aggregation
Type: biochemical
Conditions: 24 h
Where a name gives a salt, the structure may show the parent alone.
Measure Name: inhibition at 330 µM

Compound | Measure Name | Result
CNc1ncc(CNc2nc(Cc3ccccc3)cs2)s1 [Compound 2af, dihydrochloride] | inhibition at 330 µM | 41.3%
CNc1ncc(CNc2nc(-c3ccc(C)cc3)cs2)s1 [Compound 2n, dihydrochloride] | inhibition at 330 µM | 27.8%
c1ccc(CNc2ncc(CNc3nc(Cc4ccccc4)cs3)s2)cc1 [Compound 2ae, dihydrochloride] | inhibition at 330 µM | 51.2%
CNc1ncc(CNc2ncc(-c3ccc(C)cc3)s2)s1 [Compound 2o, dihydrochloride] | inhibition at 330 µM | 39.6%
c1ccc(CNc2ncc(CNc3nc(-c4cccs4)cs3)s2)cc1 [Compound 2al, dihydrochloride] | inhibition at 330 µM | 66.1%
Cc1ccc(-c2csc(NCc3cnc(NCc4ccccc4)s3)n2)cc1 [Compound 2j, dihydrochloride] | inhibition at 330 µM | 70.7%

----------
Consider the following compounds and their measured inhibition at 330 µM readings.
Molecular target: amyloid beta (Aβ) 1-42 peptide (Homo sapiens)
Construct: amyloid beta (Aβ) 1-42 peptide; purchased Bachem
Assay: Thioflavin T spectrofluorescence assay, inhibition of Aβ1-42 aggregation
Format: biochemical
Conditions: 24 h
Where a name gives a salt, the structure may show the parent alone.
Measure Name: inhibition at 330 µM (%)

Compound | Numeric Readout
CNc1ncc(CNc2nccs2)s1 [Compound 2w, dihydrochloride] | 13.9
Cc1ccc(-c2cc(CNc3cc(CNc4cc(-c5ccc(C)cc5)[nH]n4)n[nH]3)n[nH]2)cc1 [Compound 2ai, trihydrochloride] | 84.8
Clc1ccc(-c2csc(NCc3cnc(NCc4ccccc4)s3)n2)cc1 [Compound 2ak] | 37.2
CNc1ncc(CNc2nc(-c3ccc(Cl)cc3)cs2)s1 [Compound 2aa, dihydrochloride] | 41.5
